Test system: Plasmodium falciparum
Assay: GSK_TCMDC: Inhibition of Plasmodium falciparum 3D7 in whole red blood cells, using parasite LDH activity as an index of growth. Test compounds present at 2uM
Type: functional

{"molecule": "O=C(Nc1cccc(CN2CCCN(Cc3cccc(Cl)c3)CC2)c1)c1ccc(Cl)c(Cl)c1.O=C(O)C(F)(F)F", "Inhibition / %": 89}
{"molecule": "CCc1cc(Cc2cnc(N)nc2N)cc(CC)c1OC", "Inhibition / %": 90}
{"molecule": "Br.CCCN(CCCCCCN(CCC)CCc1ccc(O)c(O)c1)CCc1ccc(O)cc1", "Inhibition / %": 90}
{"molecule": "O=C(Nc1ccc(C(F)(F)F)cc1)c1ccc(S(=O)(=O)NC2CCN(CC3CCCCC3)C2)cc1.O=C(O)C(F)(F)F (centres undefined)", "Inhibition / %": 99}
{"molecule": "Br.CC1(C)NC(N)=NC(=N)N1OCC1CCCCC1", "Inhibition / %": 94}
{"molecule": "CC(C)NCc1cccc(-c2ccc(NC(=O)c3cccc(C#N)c3)cc2)c1.O=C(O)C(F)(F)F", "Inhibition / %": 100}
{"molecule": "COc1ccc(S(=O)(=O)NC2CCN(c3ccnc4cc(Cl)ccc34)C2)cc1.O=C(O)C(F)(F)F (centres undefined)", "Inhibition / %": 100}
{"molecule": "O=C(NC1CCN(Cc2ccccc2)CC1)c1cccc(Nc2nc(-c3ccccc3)cs2)c1", "Inhibition / %": 84}
{"molecule": "Fc1ccc2[nH]c3c(NCCCN4CCOCC4)ncnc3c2c1", "Inhibition / %": 98}

* * *

Test system: HepG2
Test: GSK_TCMDC: Percent inhibition of human HepG2 cell line. Test compounds present at 10uM.
Assay type: functional
Each record here notes measured Inhibition.
assay endpoint: Inhibition

{"substance smiles": "COc1cc2c(C3CCN(CC4CCN(C(=O)/C=C/c5ccc(Cl)c(Cl)c5)CC4)CC3)c[nH]c2cn1", "result": "27%"}
{"substance smiles": "CC(C)NCc1ccc(-c2cccc(CN3CCC(c4ccccc4)CC3)c2)c(C(=O)NCC2CCCCC2)c1.O=C(O)C(F)(F)F", "result": "42%"}
{"substance smiles": "Cc1ccccc1NC(=S)NC1CCN(CCCCCNC(=O)/C=C/c2ccc(Cl)c(Cl)c2)CC1", "result": "14%"}

* * *

Test system: Plasmodium falciparum
Test: GSK_TCMDC: Inhibition of Plasmodium falciparum Dd2 in whole red blood cells, using parasite LDH activity as an index of growth. Test compounds present at 2uM
Type: functional
# label = bin(measured Inhibition), where bins are 1 = under 30%, 2 = from 30% up to 80%, 3 = 80% and over

{"compound": "COc1ccc(-c2ccc(NC(=O)c3cccc(Cl)c3)cc2)cc1CN1CCC(O)CC1.O=C(O)C(F)(F)F", "label class": 1}
{"compound": "COc1cccc(-c2nc3c(N4CCN(c5ccncc5)CC4)cccc3n2CC2CCCCCN2)n1.O=C(O)C(F)(F)F (stereo not given)", "label class": 2}
{"compound": "CCCCCCNC(=O)c1nn(CCN2CCC(N3CCCC3)CC2)cc1-c1ccc(Cl)c(Cl)c1", "label class": 2}
{"compound": "Cc1cc(C)cc(Oc2c(C(F)(F)F)oc3c(CN4CC(C)OC(C)C4)c(O)ccc3c2=O)c1 (stereo not given)", "label class": 2}
{"compound": "Cc1cc(N2CCOCC2)nc(Nc2ccc(NC(=O)Nc3ccc(F)cc3)cc2)n1", "label class": 2}
{"compound": "CN(C)CCOc1cc(NC(=O)Nc2ccc(Cl)cc2C(F)(F)F)ccc1I", "label class": 1}
{"compound": "COc1ccc2nc3cc(Cl)ccc3c(NCCCO)c2c1", "label class": 3}
{"compound": "CCCCCCc1cc(Oc2c(I)cc(C[C@H](N)C(=O)O)cc2I)ccc1O", "label class": 1}
{"compound": "N#Cc1ccc(-c2ccc(C(=O)NCCCCN3CCC(c4ccc5c(c4OCc4ccncc4)CCCC5)CC3)cc2)cc1", "label class": 2}
{"compound": "COc1ccc(CNCc2ccc(-c3ccc(-c4nc5ccccc5[nH]4)cc3)cc2)cc1.O=C(O)C(F)(F)F", "label class": 3}
{"compound": "O=c1cc(NCCCNC2CCc3ccc(Cl)cc32)[nH]c2ccccc12 (stereo not given)", "label class": 2}
{"compound": "O=C(Nc1cccc(CN2CCCN(Cc3ccc(O)cc3)CC2)c1)c1cc(F)cc(F)c1.O=C(O)C(F)(F)F", "label class": 1}
{"compound": "COc1ccc2nc(-c3ccccc3)cc(N/N=C/c3ccc([N+](=O)[O-])o3)c2c1", "label class": 3}
{"compound": "Cc1ccc(Oc2ccc(NC(=O)CNc3ccccc3N3CCCC3=O)cc2)cc1", "label class": 3}
